Where these numbers come from: the pKa sets of Baltruschat and Czodrowski (2020)

details: acidic group
Observable: pKa
Just the number, please.

[[record]]
compound = "Sc1nc2[nH]cnc2c[nH+]1"
number = 0.5

[[record]]
compound = "CC(=O)NC(CS)C(=O)[O-] (centres undefined)"
number = 9.62

[[record]]
compound = "CC(C)(/C=C/C(=O)[O-])c1cc([N+](=O)[O-])ccc1O"
number = 7.24

[[record]]
compound = "Cc1cccc(NS(=O)(=O)c2ccc(N)cc2)[n+]1[O-]"
number = 5.9

[[record]]
compound = "CC(C)CCC1=C(O)C(=O)c2ccccc2C1=O"
number = 5.13

[[record]]
compound = "Cc1ccc(O)cc1[N+](C)(C)C"
number = 8.28


Query (compound): "Cc1cc2nc[nH]c2cc1C" ; field requested: pKa 12.5

Entry "CC(=O)c1ccc(C(=O)O)cc1" has what pKa? 3.72

Sample "CCOc1cccc(C)c1C(=O)O" — what was its pKa? 3.51

----------
Each entry below carries its reported pKa.
details: basic group

Can you share its pKa? I mean this molecule: "C[NH+](C)CCC/N=C(\c1ccccc1)c1ccccc1O" 3.31

So what's the measured pKa for this one? "CN(C)O" 5.2

I would be grateful if you could share the reported pKa for "CNNC1CCN(C)CC1" . 8.7

I am curious: what pKa value has been reported for "Cn1cnc2c([O-])nc(N)nc21" ? 9.92

Looking for the measured pKa of COc1ccc(CC(C)N)cc1 (centres undefined) , can you help? 9.53

May I ask what pKa has been recorded for "N#CC(CCN1CCOCC1)(c1ccccc1)c1ccccc1" ? 6.09

Return reported pKa; argument: "CCNc1ccc(C)cc1" 5.72

What does the record list as pKa for "CN(C)Cc1cccc(NC(=O)/C=N/[O-])c1" ? 9.12

Fill in: pKa of "OCCN(CCc1nnn[n-]1)CCc1nnn[n-]1" is ___ 8.9

Need pKa of "OC(c1ccccc1)(c1ccccc1)c1ccccn1" , thanks. 3.9

# pKa lookup, item CCNC(=O)C1CCCCN1 (centres undefined) 8.6

Need pKa, item "N[C@H]1CONC1=O" 7.53

For COC(=O)C1CCCN(C)C1 (centres undefined) , what is its reported pKa? 8.45

# lookup: pKa of "CCNCCNCC" 10.5

What value of pKa has been reported for the following molecule? "CC[NH+](CCO)c1ccc(N)cc1" 3.04

----------
conditions: acidic group
Decide using pKa: a value greater than or equal to 8 is YES, a smaller one is NO.

Past entries and their recorded results:
[[record]]
molecule = "O=C(O)C1Cc2ccccc2O1 (stereo not given)"
discrete_label = "NO"

[[record]]
molecule = "O=C(O)C1CC1(Br)Br (stereo not given)"
discrete_label = "NO"


Could you verify whether the entry "Cc1ccc(O)c(C)c1" shows pKa of no less than 8? YES

----------
conditions: basic group
Observable: pKa
Answer with the value's number alone.

These recorded examples may help you get a feel for the data.
[[record]]
compound = "CN(C)CCCCC(=O)Oc1ccccc1"
number = 10

[[record]]
compound = "CCCSC(=N)c1ccccc1"
number = 8.1


# pKa lookup, item "c1ccc(-c2cccc(-c3ccccn3)n2)nc1" 4.66

May I ask what pKa has been recorded for CC(Cl)CN(C)C (centres undefined) ? 8.12

Requested field: pKa. Item: "CCOc1ccc2[nH]c(C)nc2c1" 6.22

Looking for the measured pKa of "Brc1cc2cccnc2c2ncccc12" , can you help? 4.2

Give its pKa value. Item: "OCc1nc2cc(Cl)ccc2[nH]1" 4.63

// query pKa value for entry "N=C(Nc1ccccc1)Nc1ccccc1" 9.94

So what does the record say about pKa for "Cn1ncc2c(Nc3ccccc3)ncnc21" ? 3.53
